system: Human papillomavirus type 1a E7 protein (residues 1-88); experiment: HPV1a E7 small-molecule binders, primary screen, biochemical, small-molecule microarray, residues 1-88, 635 nm (AID 1129); details: small-molecule microarray binding, fluorescence 635 nm; higher = more signal
MEASURED PARAMETER: composite z-score
// return just the number, without any unit appended

The compound identified as COc1ccc([Si](C)(C)[C@H]2[C@H](CC(=O)N(CCO)Cc3ccccc3)O[C@@]3(C(=O)N(Cc4cccc(N5C(=O)c6cccc7cccc5c67)c4)c4ccccc43)[C@@H]2C)cc1 registered its composite z-score at 1.09

The compound identified as CC(=O)NCCCC[C@@H]1NC(=O)[C@@H]2C[C@H](C(=O)NCCCCCC[N+](C)(C)C)[C@H](c3cccc(OCCO)c3)N2C1=O registered its composite z-score at 1.17

The compound identified as COCCCNC(=O)[C@@]1(Cc2ccccc2I)c2ccccc2C(=O)N(Cc2ccccc2)[C@H]1c1ccc(CO)cc1 registered its composite z-score at -0.726
